Tested on: SF-539 CNS
Experiment: NCI-60 one-dose screen, 48 h
Conditions: 10 µM unless noted
Experimental: Cells are grown in 96 well plates and exposed to the test compound for 48 hours. Compounds are tested at a single concentration, which is 10^-5 M for most compounds. The reported endpoint is percent growth (GI% or GIPRCNT), where numbers from 0 - 100% represent growth inhibition, and numbers from -100% - 0 represent cell death. For example, a value of 40 represents 60% growth inhibition. A value of 0 means no net growth occurred over the course of the experiment. […]
About 83,000 compounds went through this panel and 20% of them were active in at least one assay; those are over-represented in the sample as a whole. The source made the active and inactive calls. The calls were made as follows: active = growth percent below 10; inactive = the rest.
Can you answer with just one of these options? class 1 = active, class 0 = inactive

# Compound, Discrete label
data = [
    ("C=CCn1c(SCC(=O)Nc2cccc(C(=O)/C=C/c3ccccc3Cl)c2)nc2ccccc2c1=O", "class 0"),
]

Record request — test call for `N/C(=N\OC(=O)CSc1nc2ccccc2s1)c1ccc2ccccc2c1`
class 0

What classification did `CN1CCN(c2ccc(C(=O)/C=C/c3ccc(Cl)c(C(F)(F)F)c3)cc2)CC1` end up with in this test?
class 0

Answer briefly: the call reported for `COc1ccc(CCN2C(=O)/C(=C/c3nc(CO)cs3)SC2=S)cc1` in this assay.
class 0

Hi team, can someone confirm the assay call for CC1COc2c(N3CCN(C)CC3)c(F)cc3c(=O)c(C(=O)N/N=C/c4cc[nH]c4)cn1c23 (stereo not given) ?
class 0

// outcome(item) with item = `CCCCCCNC(=O)Oc1ccc(/C(=C(/C)c2ccc(Cl)cc2)c2ccc(OCCN3CCCC3)cc2)cc1`
class 1

Assay result, entry `CC(=O)NC(C)(C)C(=O)N1CCC[C@H]1C(=O)NC(C)(C)C(=O)N[C@@H](C)C(=O)NC(C)(C)C(=O)N[C@@H](C)C(=O)N[C@@H](CCC(N)=O)C(=O)NC(C)(C)C(=O)N[C@H](C(=O)NC(C)(C)C(=O)NCC(=O)N[C@@H](CC(C)C)C(=O)NC(C)(C)C(=O)N1CCC[C@H]1C(=O)N[C@H](C(=O)NC(C)(C)C(=O)NC(C)(C)C(=O)N[C@@H](CCC(N)=O)C(=O)N[C@@H](CCC(N)=O)C(=O)N[C@H](CO)Cc1ccccc1)C(C)C)C(C)C` — outcome?
class 0

Which result was noted for this compound in the test: `O=C(NCCNc1cc(-c2cn(-c3ccccc3)nc2-c2cccc(O)c2)ccn1)Nc1ccc(Cl)c(C(F)(F)F)c1`
class 0

Entry `CCNC(=O)Oc1ccc(/C(=C(/C)c2ccc(Cl)cc2)c2ccc(OCCN(C)C)cc2)cc1` : call = ?
class 0

Status in this test for `O=C(c1ccc(O)cc1)[C@@H]1[C@@H]2CCCN2[C@@]2(C(=O)N(C(=O)c3ccc(F)cc3)c3ccccc32)[C@H]1c1ccc(F)cc1` ?
class 0

Which outcome did this test record for the compound `COc1ccc([C@H]2[C@H](O)C(=O)N2c2cc(OC)c(OC)c(OC)c2)cc1` ?
class 1

// return assay outcome for `COc1cc(/C=N/n2cnc3oc(-c4ccccc4)cc3c2=N)cc(CN2CCN(C)CC2)c1O`
class 0
